System: PC-3 prostate
METHOD_NOTES: NCI tumour cell line growth inhibition, 48 h

{"COMPOUND": "COc1ccc(S(=O)(=O)N2C(=O)CCC2C(=O)NN)cc1 (stereo unspecified)", "TGI": "> 100 µM"}
{"COMPOUND": "O=C(O)c1cccc(COc2ccc([N+](=O)[O-])cc2Cl)c1", "TGI": "> 100 µM"}
{"COMPOUND": "CC(C)c1[nH]nc2c1N=C(c1ccccc1Cl)c1cc([N+](=O)[O-])ccc1N2", "TGI": "> 25 µM"}
{"COMPOUND": "Cc1c(N2C(=O)C(Cl)C2c2ccc(Cl)cc2)c(=O)n(-c2ccccc2)n1C (stereo unspecified)", "TGI": "> 100 µM"}
{"COMPOUND": "O=C(Oc1cc(=O)c(OC(=O)c2ccccc2)co1)c1ccccc1", "TGI": "> 100 µM"}
{"COMPOUND": "NCCNCC1CCNCC1", "TGI": "> 100 µM"}
